Conditions: 362.15 K; 101.33 kPa; Liquid; Vibrating tube method
± gives the expanded uncertainty stated by the source.
For each record, write down the corresponding mass density.
Answer with the figure and its unit, nothing else.

Example molecules with recorded mass density:
[
  {
    "molecule": "CCCCCCOS(=O)(=O)[O-].CC[n+]1ccn(C)c1 [3-ethyl-1-methyl-1H-imidazolium hexyl sulfate]",
    "mass density": "1088.8 ± 1 kg/m3"
  },
  {
    "molecule": "CCn1cc[n+](C)c1.O=S(=O)([O-])O [1-ethyl-3-methylimidazolium hydrogen sulfate]",
    "mass density": "1327.26 ± 0.56 kg/m3"
  },
  {
    "molecule": "CCCCOS(=O)(=O)[O-].CC[n+]1ccn(C)c1 [3-ethyl-1-methylimidazolium butyl sulfate]",
    "mass density": "1134.18 ± 1.1 kg/m3"
  },
  {
    "molecule": "CCCCCCCCOS(=O)(=O)[O-].CCn1cc[n+](C)c1 [1-ethyl-3-methylimidazolium octyl sulfate]",
    "mass density": "1054.12 ± 0.95 kg/m3"
  }
]

// below: mass density requested for another molecule
Give me measured mass density, please, for this molecule: CCn1cc[n+](C)c1.COS(=O)(=O)[O-] [1-ethyl-3-methylimidazolium methylsulfate]
1243.44 ± 0.5 kg/m3

====

Details: 355.15 K; 101.33 kPa; Liquid; Vibrating tube method
± gives the expanded uncertainty stated by the source.
value kind: mass density
Answer with the figure and its unit, nothing else.

I'm hoping you can list mass density for every compound here, please.
1. CCCCCCCCOS(=O)(=O)[O-].CCn1cc[n+](C)c1 [1-ethyl-3-methylimidazolium octyl sulfate]
2. CCCCCCOS(=O)(=O)[O-].CC[n+]1ccn(C)c1 [3-ethyl-1-methyl-1H-imidazolium hexyl sulfate]
3. CCCCOS(=O)(=O)[O-].CC[n+]1ccn(C)c1 [3-ethyl-1-methylimidazolium butyl sulfate]
4. CCn1cc[n+](C)c1.COS(=O)(=O)[O-] [1-ethyl-3-methylimidazolium methylsulfate]
5. CCn1cc[n+](C)c1.O=S(=O)([O-])O [1-ethyl-3-methylimidazolium hydrogen sulfate]

["1058.53 ± 0.96 kg/m3", "1093.22 ± 1 kg/m3", "1138.65 ± 1.1 kg/m3", "1247.98 ± 0.5 kg/m3", "1331.38 ± 0.56 kg/m3"]

====

Details: 358.15 K; 101.33 kPa; Liquid; Concentric cylinders viscometry
Everything with viscosity lower than 20 mPa·s is Not met; everything else, including exactly 20 mPa·s, is Met.

For orientation, consider the following solved cases.
[
  {
    "molecule": "CCCCOS(=O)(=O)[O-].CC[n+]1ccn(C)c1 [3-ethyl-1-methylimidazolium butyl sulfate]",
    "class name": "Not met"
  },
  {
    "molecule": "CCn1cc[n+](C)c1.O=S(=O)([O-])O [1-ethyl-3-methylimidazolium hydrogen sulfate]",
    "class name": "Met"
  },
  {
    "molecule": "CCCCCCOS(=O)(=O)[O-].CC[n+]1ccn(C)c1 [3-ethyl-1-methyl-1H-imidazolium hexyl sulfate]",
    "class name": "Met"
  },
  {
    "molecule": "CCn1cc[n+](C)c1.COS(=O)(=O)[O-] [1-ethyl-3-methylimidazolium methylsulfate]",
    "class name": "Not met"
  }
]

Could you tell me if the measured viscosity of CCCCCCCCOS(=O)(=O)[O-].CCn1cc[n+](C)c1 [1-ethyl-3-methylimidazolium octyl sulfate] reaches 20 mPa·s or more?
Met

====

For each record, write down the corresponding mass density.
Details: 311.15 K; 101.33 kPa; Liquid; Vibrating tube method
Answers are plain numbers, in kg/m3.

I'm hoping you can list mass density for every molecule here, please.
1. CCn1cc[n+](C)c1.COS(=O)(=O)[O-] [1-ethyl-3-methylimidazolium methylsulfate]
2. CCCCOS(=O)(=O)[O-].CC[n+]1ccn(C)c1 [3-ethyl-1-methylimidazolium butyl sulfate]
3. CCn1cc[n+](C)c1.O=S(=O)([O-])O [1-ethyl-3-methylimidazolium hydrogen sulfate]
4. CCCCCCOS(=O)(=O)[O-].CC[n+]1ccn(C)c1 [3-ethyl-1-methyl-1H-imidazolium hexyl sulfate]
5. CCCCCCCCOS(=O)(=O)[O-].CCn1cc[n+](C)c1 [1-ethyl-3-methylimidazolium octyl sulfate]

1277.12
1167.41
1358.14
1121.7
1087

====

Settings: 296.15 K; 101.33 kPa; Liquid; Vibrating tube method
For each record, write down the corresponding mass density.
Numbers only, in kg/m3.

Example compounds with recorded mass density:
[
  {
    "compound": "CCn1cc[n+](C)c1.COS(=O)(=O)[O-] [1-ethyl-3-methylimidazolium methylsulfate]",
    "unit name": "kg/m3",
    "mass density": 1287.41
  },
  {
    "compound": "CCn1cc[n+](C)c1.O=S(=O)([O-])O [1-ethyl-3-methylimidazolium hydrogen sulfate]",
    "unit name": "kg/m3",
    "mass density": 1367
  },
  {
    "compound": "CCCCCCCCOS(=O)(=O)[O-].CCn1cc[n+](C)c1 [1-ethyl-3-methylimidazolium octyl sulfate]",
    "unit name": "kg/m3",
    "mass density": 1096.77
  },
  {
    "compound": "CCCCOS(=O)(=O)[O-].CC[n+]1ccn(C)c1 [3-ethyl-1-methylimidazolium butyl sulfate]",
    "unit name": "kg/m3",
    "mass density": 1177.62
  }
]

// below: mass density requested for another compound
Give me measured mass density, please, for this compound: CCCCCCOS(=O)(=O)[O-].CC[n+]1ccn(C)c1 [3-ethyl-1-methyl-1H-imidazolium hexyl sulfate]
1131.77

====

Details: 298.15 K; 101.33 kPa; Liquid; Concentric cylinders viscometry
value kind: viscosity (mPa·s)
Answers are plain numbers, in mPa·s.

Example molecules with recorded viscosity:
[
  {
    "molecule": "CCCCCCCCOS(=O)(=O)[O-].CCn1cc[n+](C)c1 [1-ethyl-3-methylimidazolium octyl sulfate]",
    "test value": 601.6
  },
  {
    "molecule": "CCCCCCOS(=O)(=O)[O-].CC[n+]1ccn(C)c1 [3-ethyl-1-methyl-1H-imidazolium hexyl sulfate]",
    "test value": 311.4
  },
  {
    "molecule": "CCn1cc[n+](C)c1.COS(=O)(=O)[O-] [1-ethyl-3-methylimidazolium methylsulfate]",
    "test value": 78.8
  },
  {
    "molecule": "CCCCOS(=O)(=O)[O-].CC[n+]1ccn(C)c1 [3-ethyl-1-methylimidazolium butyl sulfate]",
    "test value": 180.8
  }
]

Give me measured viscosity, please, for this molecule: CCn1cc[n+](C)c1.O=S(=O)([O-])O [1-ethyl-3-methylimidazolium hydrogen sulfate]
1628.4

====

For each record, write down the corresponding mass density.
Settings: 301.15 K; 101.33 kPa; Liquid; Vibrating tube method
One number for each entry, in kg/m3.

[
  {
    "molecule": "CCn1cc[n+](C)c1.COS(=O)(=O)[O-] [1-ethyl-3-methylimidazolium methylsulfate]",
    "test value": 1283.95
  },
  {
    "molecule": "CCn1cc[n+](C)c1.O=S(=O)([O-])O [1-ethyl-3-methylimidazolium hydrogen sulfate]",
    "test value": 1363.91
  },
  {
    "molecule": "CCCCOS(=O)(=O)[O-].CC[n+]1ccn(C)c1 [3-ethyl-1-methylimidazolium butyl sulfate]",
    "test value": 1174.19
  },
  {
    "molecule": "CCCCCCCCOS(=O)(=O)[O-].CCn1cc[n+](C)c1 [1-ethyl-3-methylimidazolium octyl sulfate]",
    "test value": 1093.65
  }
]

// below: mass density requested for another molecule
Give me measured mass density, please, for this molecule: CCCCCCOS(=O)(=O)[O-].CC[n+]1ccn(C)c1 [3-ethyl-1-methyl-1H-imidazolium hexyl sulfate]
1128.4

====

For each record, write down the corresponding viscosity.
Conditions: 338.15 K; 101.33 kPa; Liquid; Concentric cylinders viscometry
± gives the expanded uncertainty stated by the source.

I'm hoping you can list viscosity for every molecule here, please.
1. CCCCCCOS(=O)(=O)[O-].CC[n+]1ccn(C)c1 [3-ethyl-1-methyl-1H-imidazolium hexyl sulfate]
2. CCCCCCCCOS(=O)(=O)[O-].CCn1cc[n+](C)c1 [1-ethyl-3-methylimidazolium octyl sulfate]
3. CCCCOS(=O)(=O)[O-].CC[n+]1ccn(C)c1 [3-ethyl-1-methylimidazolium butyl sulfate]
4. CCn1cc[n+](C)c1.O=S(=O)([O-])O [1-ethyl-3-methylimidazolium hydrogen sulfate]
5. CCn1cc[n+](C)c1.COS(=O)(=O)[O-] [1-ethyl-3-methylimidazolium methylsulfate]

1. 47.2 ± 2 mPa·s
2. 74.5 ± 3.1 mPa·s
3. 32.4 ± 1.3 mPa·s
4. 179.6 ± 7.8 mPa·s
5. 19.7 ± 0.8 mPa·s

====

Conditions: 313.15 K; 101.33 kPa; Liquid; Vibrating tube method
value kind: mass density (kg/m3)
Numbers only, in kg/m3.

[
  {
    "molecule": "CCCCOS(=O)(=O)[O-].CC[n+]1ccn(C)c1 [3-ethyl-1-methylimidazolium butyl sulfate]",
    "mass density / kg/m3": 1166.06
  }
]

I'm hoping you can list mass density for every molecule here, please.
1. CCn1cc[n+](C)c1.COS(=O)(=O)[O-] [1-ethyl-3-methylimidazolium methylsulfate]
2. CCn1cc[n+](C)c1.O=S(=O)([O-])O [1-ethyl-3-methylimidazolium hydrogen sulfate]
3. CCCCCCCCOS(=O)(=O)[O-].CCn1cc[n+](C)c1 [1-ethyl-3-methylimidazolium octyl sulfate]
4. CCCCCCOS(=O)(=O)[O-].CC[n+]1ccn(C)c1 [3-ethyl-1-methyl-1H-imidazolium hexyl sulfate]

1. 1275.76
2. 1356.9
3. 1085.68
4. 1120.37
